Listed next: entries and their corresponding Viable counts, Pseudomonas aeruginosa time kill study.
System: Pseudomonas aeruginosa (ATCC 27853)
Assay: Time kill study, Example 33 (0 to 5 min)
Type: cell-based
Conditions: 1×MIC, 0.5 min
Procedure: Thirty compounds were tested for antimicrobial activity using standard procedures and standard strains for both the minimum inhibitory concentration (MIC) assay and a time kill study. Both the MIC assay and the time kill study were performed according to Clinical and Laboratory Standards Institute (CLSI) guidelines. […] The viable counts in Log10 CFU/mL at each time point were recorded. Time kill studies. […] Colonies were counted after 24 to 48 hrs of incubation. […]
Structures can show the parent of a compound that is named as a salt.
TEST READOUT: Viable counts, Pseudomonas aeruginosa time kill study (Log10 CFU/mL)

INSERT INTO assay_data (molecule, system_under_test, comparison_operator, observed_measurement) VALUES
  ('CCCCCCCCCCCCOC(=O)C(C)NC(C)C.Cl (stereo not shown)', 'Pseudomonas aeruginosa (ATCC 27853)', '=', 4.6),
  ('CCCCCCCCCCCCOC(=O)[C@@H](C)N(C)C.Cl', 'Pseudomonas aeruginosa (ATCC 27853)', '<', 4.0),
  ('CCCCCCCCCCCCOC(=O)[C@H](C)N(C)C.Cl', 'Pseudomonas aeruginosa (ATCC 27853)', '<', 4.0),
  ('CCCCCCCCCCCCOC(=O)C(C)N(C)C.CCCCCCCCCCCCOC(=O)C(C)N(C)C.O=S(=O)(O)c1cccc2c(S(=O)(=O)O)cccc12 (stereo not shown)', 'Pseudomonas aeruginosa (ATCC 27853)', '=', 5.62),
  ('CCCCCCCCCCCCCOC(=O)C(C)N(C)C (stereo not shown) [Nex-69, hydrochloride]', 'Pseudomonas aeruginosa (ATCC 27853)', '=', 5.75),
  ('CCCCCCCCCCCCOC(=O)C(C)NCCO.Cl (stereo not shown)', 'Pseudomonas aeruginosa (ATCC 27853)', '=', 4),
  ('CCCCCCCCOC(=O)C(C)N(C)C (stereo not shown) [Nex-70, hydrochloride]', 'Pseudomonas aeruginosa (ATCC 27853)', '<', 4.0),
  ('CCCCCCCCCCCCOC(=O)C(C)(C)N(C)C [Nex-58, hydrochloride]', 'Pseudomonas aeruginosa (ATCC 27853)', '<', 4.0),
  ('CCCCCCCCCCCCOC(=O)C(C)NCCN(CC)CC.Cl (stereo not shown)', 'Pseudomonas aeruginosa (ATCC 27853)', '=', 4),
  ('CCCCCCCCCCCCOC(=O)C(C)NC.Cl (stereo not shown)', 'Pseudomonas aeruginosa (ATCC 27853)', '=', 5.26);

FYI, the data here is from patent US20140357713A1.
